Source: paper PMC2034157

Experiment: physchem

Molecule | solubility
Cn1c(/C=C/CO)c(CO)c2c1C(=O)C=C(N1CC1)C2=O | 200 to 500 µg/mL
CO[C@@H](/C(C)=C/C=C/C(C)=C/c1coc(C)n1)[C@@H](C)[C@@H]1C[C@H](O)[C@@]2(C)O[C@@H]2/C=C/[C@@H](C)[C@H]2C[C@H](CC(=O)O2)C[C@@H]2O[C@H]2C(=O)O1 | 12 µg/mL
C[C@@]1(CO)[C@H](O)CC[C@@]2(C)[C@H]1CC[C@H]1C[C@@H]3C[C@@]12CC[C@]3(O)CO [Aphidicolin, reference compound] | ~250 µg/mL
